biological target: human c-Mpl receptor (Homo sapiens, UniProt P40238); construct: expressed in transfected cells; assay: Human c-Mpl-introduced Ba/F3 cell proliferative activity; assay type: cell-based; details: concentration showing 30% proliferation; 100% = positive control at 1 μM
Sequence (P40238 26-635): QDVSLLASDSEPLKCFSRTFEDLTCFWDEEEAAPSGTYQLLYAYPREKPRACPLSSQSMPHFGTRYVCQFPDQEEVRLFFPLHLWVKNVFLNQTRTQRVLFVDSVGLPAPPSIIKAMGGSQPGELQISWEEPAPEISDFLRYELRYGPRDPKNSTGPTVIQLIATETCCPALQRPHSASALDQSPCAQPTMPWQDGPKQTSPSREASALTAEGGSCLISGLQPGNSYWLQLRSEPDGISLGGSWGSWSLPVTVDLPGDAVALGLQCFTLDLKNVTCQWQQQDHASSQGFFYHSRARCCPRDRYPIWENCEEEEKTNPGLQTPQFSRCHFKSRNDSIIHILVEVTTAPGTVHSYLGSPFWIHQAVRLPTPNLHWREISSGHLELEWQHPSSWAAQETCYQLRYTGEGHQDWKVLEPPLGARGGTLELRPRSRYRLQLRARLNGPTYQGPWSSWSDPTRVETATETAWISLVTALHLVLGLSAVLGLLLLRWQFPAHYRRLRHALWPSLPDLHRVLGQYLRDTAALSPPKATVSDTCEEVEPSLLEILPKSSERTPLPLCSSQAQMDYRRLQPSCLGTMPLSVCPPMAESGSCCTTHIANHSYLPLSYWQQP
Where a name gives a salt, the structure may show the parent alone.
Measured property: Test Example 2 EC30

>>> assay_result("COCCN(Cc1sc(NC(=O)c2cnc(N3CCC(C(=O)O)CC3)cn2)nc1-c1cc(C(F)(F)F)cc(C(F)(F)F)c1)CC(C)C")
">10 µM"
>>> assay_result("CC[C@@H]1CCCN1Cc1sc(NC(=O)c2cnc(N3CCC(F)(C(=O)O)CC3)cn2)nc1-c1ccc(OC)c(C(F)(F)F)c1")
">10 µM"
>>> assay_result("C[C@@H]1CCCN1Cc1sc(NC(=O)c2cnc(N3CCC(O)(C(=O)O)CC3)cn2)nc1-c1cc(Cl)cs1")
"0.77 µM"
>>> assay_result("COc1ccc(-c2nc(NC(=O)c3cnc(N4CCC(C(=O)O)CC4)cn3)sc2CN2CCCC2C(C)C)cc1C(F)(F)F (centres unmarked)")
">10 µM"
>>> assay_result("CCOc1ccc(-c2nc(NC(=O)c3cnc(N4CCC(C(=O)O)CC4)cn3)sc2CN2CCC[C@H]2C)cc1C(F)(F)F")
">10 µM"
>>> assay_result("COc1cc(-c2nc(NC(=O)c3cnc(N4CCC(C(=O)O)CC4)cn3)sc2CN2CCCC[C@H]2C)cc(C(F)(F)F)c1 [Example 2, dihydrochloride]")
">10 µM"
>>> assay_result("O=C(Nc1nc(-c2ccc(OCCCF)c(C(F)(F)F)c2)c(CN2CCC[C@H]2C(F)(F)F)s1)c1cnc(N2CCC(C(=O)O)CC2)cn1")
">10 µM"
>>> assay_result("CC(C)Oc1ccc(-c2nc(NC(=O)c3cnc(N4CCC(C(=O)O)CC4)cn3)sc2CN2CCCC(C)(C)C2)cc1C(F)(F)F")
">10 µM"
>>> assay_result("CCCOc1ccc(-c2nc(NC(=O)c3cnc(N4CCC(C(=O)O)CC4)cn3)sc2CN2CCC[C@H]2CC)cc1C(F)(F)F [Example 1, dihydrochloride]")
">10 µM"
>>> assay_result("CC[C@@H]1CCCN1Cc1sc(NC(=O)c2cnc(N3CCC(C(=O)O)CC3)cn2)nc1-c1cc(F)cc(C(F)(F)F)c1")
">10 µM"
>>> assay_result("C[C@@H]1CCCN1Cc1sc(NC(=O)c2cnc(N3CCC(C(=O)O)CC3)cn2)nc1-c1cc(F)cc(C(F)(F)F)c1")
">10 µM"
>>> assay_result("C[C@@H]1CCCN1Cc1sc(NC(=O)c2cnc(N3CCC(F)(C(=O)O)CC3)cn2)nc1-c1cc(F)cc(C(F)(F)F)c1")
"8.4 µM"
>>> assay_result("CCOc1ccc(-c2nc(NC(=O)c3cnc(N4CCC(C(=O)O)CC4)cn3)sc2CN2CCC[C@H]2CC)cc1C(F)(F)F")
">10 µM"
>>> assay_result("C[C@@H]1CCCN1Cc1sc(NC(=O)c2cnc(N3CCC(C(=O)O)CC3)cn2)nc1-c1ccc(N(C)C)c(C(F)(F)F)c1")
">10 µM"
>>> assay_result("CC[C@@H]1CCCN1Cc1sc(NC(=O)c2cnc(N3CCC(C(=O)O)CC3)cn2)nc1-c1ccc(OCCCOC)c(C(F)(F)F)c1")
">10 µM"
>>> assay_result("CCCC1CCCN1Cc1sc(NC(=O)c2cnc(N3CCC(C(=O)O)CC3)cn2)nc1-c1ccc(OC)c(C(F)(F)F)c1 (centres unmarked)")
">10 µM"
>>> assay_result("COCCN(Cc1sc(NC(=O)c2cnc(N3CCC(C(=O)O)CC3)cn2)nc1-c1cc(Cl)cs1)CC(C)C")
"0.58 µM"
>>> assay_result("CCCN(CCOC)Cc1sc(NC(=O)c2cnc(N3CCC(C(=O)O)CC3)cn2)nc1-c1cc(Cl)cs1")
"0.82 µM"
>>> assay_result("CC[C@@H]1CCCN1Cc1sc(NC(=O)c2cnc(N3CCC(C(=O)O)CC3)cn2)nc1-c1ccc(OC)c(C(F)(F)F)c1")
">10 µM"
>>> assay_result("C[C@@H]1CCCCN1Cc1sc(NC(=O)c2cnc(N3CCC(C(=O)O)CC3)cn2)nc1-c1cc(Cl)cs1")
"0.38 µM"
>>> assay_result("COc1ccc(-c2nc(NC(=O)c3cnc(N4CCC(C(=O)O)CC4)cn3)sc2CN2CCC[C@H]2C(F)(F)F)cc1C(F)(F)F")
">10 µM"
>>> assay_result("C[C@@H]1CCCN1Cc1sc(NC(=O)c2cnc(N3CCC(C(=O)O)CC3)cn2)nc1-c1cc(Cl)cs1 [Example 4, dihydrochloride]")
"0.35 µM"
>>> assay_result("Cc1cc(OC(F)(F)F)cc(-c2nc(NC(=O)c3cnc(N4CCC(F)(C(=O)O)CC4)cn3)sc2CN2CCC[C@H]2C)c1 [Example 3, dihydrochloride]")
"4.8 µM"
>>> assay_result("CCOC[C@@H]1CCCN1Cc1sc(NC(=O)c2cnc(N3CCC(C(=O)O)CC3)cn2)nc1-c1cc(F)c(OC)c(C(F)(F)F)c1")
">10 µM"
>>> assay_result("COc1c(Cl)cc(-c2nc(NC(=O)c3cnc(N4CCC(C(=O)O)CC4)cn3)sc2CN2CCC[C@H]2C)cc1Cl")
">10 µM"
>>> assay_result("CCOC[C@@H]1CCCN1Cc1sc(NC(=O)c2cnc(N3CCC(C(=O)O)CC3)cn2)nc1-c1cc(F)c(OC)c(Cl)c1")
">10 µM"
